B1: library; a variant is named by its letters at N, in order (parent)
chain: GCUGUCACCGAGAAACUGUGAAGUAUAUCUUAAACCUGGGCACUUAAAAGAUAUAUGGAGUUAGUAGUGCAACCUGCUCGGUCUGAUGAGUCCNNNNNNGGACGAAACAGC

# Variants of: B1
# EXPERIMENTAL_DETAILS: normalized RNA/DNA level with ligand (relative to sTRSVctl = 100) (log10 (% of sTRSVctl)); HEK293T; ligand: cyclic di-GMP (c-di-GMP-II aptamer); ligand concentration (+) RNA-Seq: 1 mM; higher = less ribozyme self-cleavage, higher mRNA level
# EXPERIMENTAL_CONDITIONS: reporter: mCherry (pCS4076), ligand present: yes
PROPERTY_NAME: normalized RNA/DNA level with ligand (log10)
The answer should be a number; do not append a unit.

Below, 5 variants whose answers are already recorded.
{"columns": ["INPUT_SEQUENCE", "TEST_RESULT"],
 "data": [
  ["GCUGUCACCGAGAAACUGUGAAGUAUAUCUUAAACCUGGGCACUUAAAAGAUAUAUGGAGUUAGUAGUGCAACCUGCUCGGUCUGAUGAGUCCAGUCGAGGACGAAACAGC", 1.84],
  ["GCUGUCACCGAGAAACUGUGAAGUAUAUCUUAAACCUGGGCACUUAAAAGAUAUAUGGAGUUAGUAGUGCAACCUGCUCGGUCUGAUGAGUCCCUGGGCGGACGAAACAGC", 1.88],
  ["GCUGUCACCGAGAAACUGUGAAGUAUAUCUUAAACCUGGGCACUUAAAAGAUAUAUGGAGUUAGUAGUGCAACCUGCUCGGUCUGAUGAGUCCCCGCGAGGACGAAACAGC", 1.76],
  ["GCUGUCACCGAGAAACUGUGAAGUAUAUCUUAAACCUGGGCACUUAAAAGAUAUAUGGAGUUAGUAGUGCAACCUGCUCGGUCUGAUGAGUCCGCCUCUGGACGAAACAGC", 1.87],
  ["GCUGUCACCGAGAAACUGUGAAGUAUAUCUUAAACCUGGGCACUUAAAAGAUAUAUGGAGUUAGUAGUGCAACCUGCUCGGUCUGAUGAGUCCUGAUGAGGACGAAACAGC", 1.8]
]}

Query block: What measured normalized RNA/DNA level with ligand (log10) goes with GCUGUCACCGAGAAACUGUGAAGUAUAUCUUAAACCUGGGCACUUAAAAGAUAUAUGGAGUUAGUAGUGCAACCUGCUCGGUCUGAUGAGUCCACCACUGGACGAAACAGC ?
Result block: 1.82

Query block: Could you do the same for GCUGUCACCGAGAAACUGUGAAGUAUAUCUUAAACCUGGGCACUUAAAAGAUAUAUGGAGUUAGUAGUGCAACCUGCUCGGUCUGAUGAGUCCUUUGGGGGACGAAACAGC , please?
Result block: 1.85

Query block: Would you kindly repeat that for GCUGUCACCGAGAAACUGUGAAGUAUAUCUUAAACCUGGGCACUUAAAAGAUAUAUGGAGUUAGUAGUGCAACCUGCUCGGUCUGAUGAGUCCUCGACAGGACGAAACAGC ?
Result block: 1.77
